# Tested on: HPPD polypeptides (wild-type SEQ ID NO:1 and mutants)
# experimental.setup: in the presence of mesotrione (MST), 60 μM inhibitor, high substrate concentration; kapp normalized to kapp without inhibitor
test.readout: Residual activity (%)
Could you give me the number in %? Just the number is fine.

Q: # get_value(readout='Residual activity', item= 30 (protein, mutant HPPD polypeptide) MADLYENPMGLMGFEFIEFASPTPGTLEPIFEIMGFTKVATHRSKNVHLYRQGEINLILNNEPNSIASYFAAEHGPSVCGMAFRVKDSQKAYNRALELGAQPIHIDTGPMELNLPAIKGIGGAPLYLIDRFGEGSSIYDIDFVYLEGVERNPVGAGLKVIDHLTHNVYRGRMVYWANFYEKLFNFREARYFDIKGEYTGLTSKAMSAPDGMIRIPLNEESSKGAGQIEEFLMQFNGEGIQHVAFLTDDLVKTWDALKKIGMRFMTAPSDSYYEMLEGRLPDHGEPVDQLQARGILLDGSSVEGDKRLLLQIFSETLMGPVFFEFIQRKGDDGFGPHSFKVLFESKERDQVRRGVLTAD )
A: 87

Q: Please give the result for 10 (protein, mutant HPPD polypeptide) MADLYENPMGLMGFEFIEFASPTPGTLEPIFEIMGFTKVATHRSKNVHLYRQGEINLILNNEPNSIASYFAAEHGPSVCGMAFRVKDSQKAYNRALELGAQPIHIDTGPMELNLPAIKGIGGAPLYLIDRFGEGSSIYDIDFVYLEGVERNPVGAGLKVIDHLTHNVYRGRMVYWANFYEKLFNFREARYFDIKGEYTGLTSKAMSAPDGMIRIPLNEESSKGAGQIEEFLMQFNGEGIQHVAFLTDDLVKTWDALKKIGMRFMTAPPDTYYEMLEGRLPDHGEPVDQLQARGILLDGSSVEGDKRLLLQIFSETLMGPVFFEFIQRKGDDGFGPDSFKVLFESVERDQVRRGVLTAD too.
A: 82
